target: HLA-B*27:05; experiment: IEDB peptide-MHC binding, purified MHC/direct/fluorescence; filed as Kd, often an IC50 or EC50 that approximates it; bounds were set here for any values at or beyond the usual limits of such assays; details: source organism: Vibrio vulnificus
endpoint-name: Kd

DFPIFNQRY ≥ 20 µM
LLTQSNAGF ≥ 20 µM

====

target: HLA-B*39:01; test: IEDB peptide-MHC binding, purified MHC/direct/fluorescence; filed as Kd, often an IC50 or EC50 that approximates it; bounds were set here for any values at or beyond the usual limits of such assays; settings: source organism: Influenza A virus(A/swine/Shandong/fZC/2003(H9N2))
endpoint-name: Kd

GTEKLTITY ≥ 20 µM

These data points were gathered from the Immune Epitope Database (IEDB).
